Origin of measurements: patent US8481531B2

Target: FGFR3 (Homo sapiens, UniProt P22607)
Construct: purchased Upstate
Sequence (P22607 23-806): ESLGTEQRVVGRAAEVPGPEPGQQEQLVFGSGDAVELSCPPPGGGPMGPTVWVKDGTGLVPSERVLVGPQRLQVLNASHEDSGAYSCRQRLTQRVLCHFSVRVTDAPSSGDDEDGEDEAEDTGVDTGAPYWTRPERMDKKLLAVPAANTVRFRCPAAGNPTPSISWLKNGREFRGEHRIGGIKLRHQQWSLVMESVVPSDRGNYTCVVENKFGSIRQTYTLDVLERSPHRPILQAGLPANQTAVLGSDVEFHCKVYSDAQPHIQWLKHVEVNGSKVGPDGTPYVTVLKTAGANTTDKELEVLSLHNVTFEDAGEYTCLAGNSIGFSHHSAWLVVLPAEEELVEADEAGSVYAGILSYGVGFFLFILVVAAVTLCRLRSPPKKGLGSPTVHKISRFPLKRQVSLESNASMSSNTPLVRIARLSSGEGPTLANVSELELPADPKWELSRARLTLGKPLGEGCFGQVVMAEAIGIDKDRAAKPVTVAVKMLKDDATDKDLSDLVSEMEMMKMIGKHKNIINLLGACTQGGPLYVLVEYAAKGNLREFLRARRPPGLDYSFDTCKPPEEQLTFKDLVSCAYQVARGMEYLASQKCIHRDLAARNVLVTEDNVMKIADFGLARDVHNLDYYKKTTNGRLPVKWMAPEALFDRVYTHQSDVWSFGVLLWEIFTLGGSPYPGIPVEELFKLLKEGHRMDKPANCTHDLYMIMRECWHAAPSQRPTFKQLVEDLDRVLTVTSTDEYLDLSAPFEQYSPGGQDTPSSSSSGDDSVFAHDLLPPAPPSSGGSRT
Assay: FGFR3 in vitro kinase inhibitory activity assay (TRF)
Type: biochemical
Details: 8 μM ATP, 3 hours; read-out: FGFR3 IC50(μM) or % I
Measured IC50, listed per entry for reference.
QUANTITY NAME: IC50 (µM)

O=C(NCC(F)(F)F)Nc1cccc(-c2cnc3cc(/C(=N/OCCO)C4CC4)ccn23)c1 ... 0.072
CN1CCN(CCCON=Cc2ccn3c(-c4cccc(NC(=O)NCC(F)(F)F)c4)cnc3c2)CC1 ... 0.019
O=C(NCC(F)(F)F)Nc1cccc(-c2cnc3cc(C=NOCCCN4CCC(O)C4)ccn23)c1 (stereo not shown) ... 0.026
O=C(NCC(F)(F)F)Nc1cccc(-c2cnc3cc(/C(=N\OCCO)C4CC4)ccn23)c1 ... 0.018

###

Molecular target: VEGFR2 (Homo sapiens)
Construct: purchased Upstate
Sequence (P35968 20-1356): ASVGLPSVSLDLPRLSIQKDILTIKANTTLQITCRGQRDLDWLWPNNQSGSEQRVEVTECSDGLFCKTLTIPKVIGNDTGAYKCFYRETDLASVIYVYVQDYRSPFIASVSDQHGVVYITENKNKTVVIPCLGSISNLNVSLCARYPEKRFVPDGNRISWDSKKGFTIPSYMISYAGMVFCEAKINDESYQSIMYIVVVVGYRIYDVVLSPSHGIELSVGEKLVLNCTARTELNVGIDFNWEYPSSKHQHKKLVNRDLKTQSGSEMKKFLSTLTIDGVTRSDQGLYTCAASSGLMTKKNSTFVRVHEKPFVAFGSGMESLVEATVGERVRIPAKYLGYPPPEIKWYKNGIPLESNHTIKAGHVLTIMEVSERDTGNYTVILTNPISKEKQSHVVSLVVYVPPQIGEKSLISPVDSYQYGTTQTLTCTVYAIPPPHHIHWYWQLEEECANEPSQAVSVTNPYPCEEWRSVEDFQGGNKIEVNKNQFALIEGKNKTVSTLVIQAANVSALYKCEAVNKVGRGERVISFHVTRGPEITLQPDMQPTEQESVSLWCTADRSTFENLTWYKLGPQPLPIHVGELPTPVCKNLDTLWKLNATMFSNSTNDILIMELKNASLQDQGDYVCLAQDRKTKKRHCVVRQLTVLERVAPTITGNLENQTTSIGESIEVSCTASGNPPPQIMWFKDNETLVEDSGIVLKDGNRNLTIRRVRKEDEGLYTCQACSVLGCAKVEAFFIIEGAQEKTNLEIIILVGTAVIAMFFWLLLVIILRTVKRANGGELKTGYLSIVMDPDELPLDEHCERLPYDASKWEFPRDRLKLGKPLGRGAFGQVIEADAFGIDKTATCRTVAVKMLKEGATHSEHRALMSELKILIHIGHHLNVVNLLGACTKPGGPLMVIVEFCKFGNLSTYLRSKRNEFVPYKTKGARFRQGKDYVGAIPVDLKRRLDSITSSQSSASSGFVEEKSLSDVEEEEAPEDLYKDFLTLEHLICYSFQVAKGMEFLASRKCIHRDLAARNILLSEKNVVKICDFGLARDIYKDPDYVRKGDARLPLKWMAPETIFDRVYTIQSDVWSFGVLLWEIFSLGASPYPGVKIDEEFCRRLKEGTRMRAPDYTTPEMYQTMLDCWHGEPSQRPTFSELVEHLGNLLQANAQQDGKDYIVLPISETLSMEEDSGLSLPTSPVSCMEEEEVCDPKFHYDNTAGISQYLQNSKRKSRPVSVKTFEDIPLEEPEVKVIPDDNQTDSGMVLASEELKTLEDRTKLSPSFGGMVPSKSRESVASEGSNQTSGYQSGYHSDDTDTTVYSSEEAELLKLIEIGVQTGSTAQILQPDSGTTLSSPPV
Test: VEGFR2 in vitro kinase inhibitory activity assay (TRF)
Type: biochemical
Details: 0.5 μM ATP, 1 hour; read-out: VEGFR2 IC50(μM) or % I
QUANTITY NAME: IC50 (µM)

COC1CCN(CCCON=Cc2ccn3c(-c4cccc(NC(=O)NCC(F)(F)F)c4)cnc3c2)CC1 ... 0.36
C/C(=N\OCCO)c1ccn2c(-c3cccc(NC(=O)NCC(F)(F)F)c3)cnc2c1 ... 0.051
CN1CCC(NCCCON=Cc2ccn3c(-c4cccc(NC(=O)NCC(F)(F)F)c4)cnc3c2)CC1 ... 0.26
COCCON=Cc1ccn2c(-c3cccc(NC(=O)NCC(F)(F)F)c3)cnc2c1 ... 0.635

###

Measured IC50, listed per entry for reference.
Target: VEGFR2 (Homo sapiens)
Construct: purchased Upstate
Experiment: VEGFR2 in vitro kinase inhibitory activity assay (TRF)
Format: biochemical
Settings: 0.5 μM ATP, 1 hour; read-out: VEGFR2 IC50(μM) or % I
QUANTITY NAME: IC50 (µM)

CCC(=NOC)c1ccn2c(-c3cccc(NC(=O)NCC(F)(F)F)c3)cnc2c1 ... 0.24
CC(C)Oc1cc(NC(=O)NCC(F)(F)F)cc(-c2cnc3cc(/C(=N/O)C4CC4)ccn23)c1 [Compound 1-31] ... 1.34
CC(C)Oc1cc(NC(=O)NCC(F)(F)F)cc(-c2cnc3cc(/C(=N\OCCO)C4CC4)ccn23)c1 ... 1.2
COCCOCCON=Cc1ccn2c(-c3cccc(NC(=O)NCC(F)(F)F)c3)cnc2c1 ... 0.885
CON=C(c1ccn2c(-c3cccc(NC(=O)NCC(F)(F)F)c3)cnc2c1)C1CC1 ... 0.23
O=C(NCC(F)(F)F)Nc1cccc(-c2cnc3cc(/C(=N/OCCO)C4CC4)ccn23)c1 ... 0.96
CCC(=NO)c1ccn2c(-c3cccc(NC(=O)NCC(F)(F)F)c3)cnc2c1 ... 0.083
O=C(NCC(F)(F)F)Nc1cccc(-c2cnc3cc(C=NOCc4ccncc4)ccn23)c1 ... 0.23
Nc1nc(CON=Cc2ccn3c(-c4cccc(NC(=O)NCC(F)(F)F)c4)cnc3c2)cs1 ... 0.61
O=C(NCC(F)(F)F)Nc1cccc(-c2cnc3cc(C(=NO)C4CCC4)ccn23)c1 ... 0.33
Cn1cncc1CO/N=C/c1ccn2c(-c3cccc(NC(=O)NCC(F)(F)F)c3)cnc2c1 ... 0.36
O=C(NCC(F)(F)F)Nc1cccc(-c2cnc3cc(C=NOCCCN4CCCC4)ccn23)c1 ... 0.33
N#CCCN1CCN(CCCON=Cc2ccn3c(-c4cccc(NC(=O)NCC(F)(F)F)c4)cnc3c2)CC1 ... 0.56
O=C(NCC(F)(F)F)Nc1cccc(-c2cnc3cc(C=NOCCC4CCNCC4)ccn23)c1 ... 0.33
O=C(NCC(F)(F)F)Nc1cccc(-c2cnc3cc(C=NOCCCNC4CCOCC4)ccn23)c1 ... 0.27
Cc1cc(CON=Cc2ccn3c(-c4cccc(NC(=O)NCC(F)(F)F)c4)cnc3c2)n(C)n1 ... 0.66
